Target: GST tagged truncated human mutant G2019S LRRK2 (Homo sapiens (Human), UniProt Q5S007, G2019S)
Sequence (Q5S007 970-2527 G2019S): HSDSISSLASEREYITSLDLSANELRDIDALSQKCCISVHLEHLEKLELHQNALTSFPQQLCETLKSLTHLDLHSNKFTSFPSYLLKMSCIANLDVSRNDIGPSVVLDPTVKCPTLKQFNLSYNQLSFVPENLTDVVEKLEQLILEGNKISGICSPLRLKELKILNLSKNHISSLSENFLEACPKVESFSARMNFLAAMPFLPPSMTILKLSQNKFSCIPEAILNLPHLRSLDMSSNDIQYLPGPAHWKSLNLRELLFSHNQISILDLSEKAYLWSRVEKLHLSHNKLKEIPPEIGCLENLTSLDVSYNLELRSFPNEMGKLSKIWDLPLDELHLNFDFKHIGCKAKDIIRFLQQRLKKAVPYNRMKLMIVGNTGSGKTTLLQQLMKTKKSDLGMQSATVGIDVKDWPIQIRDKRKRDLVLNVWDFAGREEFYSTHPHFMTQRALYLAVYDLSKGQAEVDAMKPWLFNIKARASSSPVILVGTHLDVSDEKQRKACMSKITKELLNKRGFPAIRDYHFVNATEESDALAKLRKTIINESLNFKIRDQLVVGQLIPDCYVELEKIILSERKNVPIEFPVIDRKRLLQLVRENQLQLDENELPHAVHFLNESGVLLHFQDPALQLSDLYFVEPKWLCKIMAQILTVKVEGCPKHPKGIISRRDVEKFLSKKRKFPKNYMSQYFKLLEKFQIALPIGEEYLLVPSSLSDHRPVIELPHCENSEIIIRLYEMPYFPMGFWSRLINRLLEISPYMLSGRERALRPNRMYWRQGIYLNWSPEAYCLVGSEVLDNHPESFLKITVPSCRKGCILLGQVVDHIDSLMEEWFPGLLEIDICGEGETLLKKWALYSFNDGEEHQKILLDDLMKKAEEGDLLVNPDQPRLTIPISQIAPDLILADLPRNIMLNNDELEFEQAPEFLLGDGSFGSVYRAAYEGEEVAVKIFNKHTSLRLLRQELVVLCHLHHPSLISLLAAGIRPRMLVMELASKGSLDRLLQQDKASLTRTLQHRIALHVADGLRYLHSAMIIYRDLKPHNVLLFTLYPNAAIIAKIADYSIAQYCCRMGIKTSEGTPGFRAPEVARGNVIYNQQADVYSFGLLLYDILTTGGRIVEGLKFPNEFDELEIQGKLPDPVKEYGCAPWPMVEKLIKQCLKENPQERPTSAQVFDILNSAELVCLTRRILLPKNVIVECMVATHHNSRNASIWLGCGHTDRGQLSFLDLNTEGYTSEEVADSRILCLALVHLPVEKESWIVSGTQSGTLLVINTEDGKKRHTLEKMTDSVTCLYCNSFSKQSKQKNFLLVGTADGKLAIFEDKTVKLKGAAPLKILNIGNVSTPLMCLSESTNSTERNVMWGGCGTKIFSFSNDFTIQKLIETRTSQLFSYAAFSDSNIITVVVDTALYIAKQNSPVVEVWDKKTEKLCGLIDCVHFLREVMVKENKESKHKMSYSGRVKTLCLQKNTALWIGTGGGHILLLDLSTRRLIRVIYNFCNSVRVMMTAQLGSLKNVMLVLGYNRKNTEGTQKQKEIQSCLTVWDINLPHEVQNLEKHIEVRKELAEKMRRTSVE
Assay: LRRK2 Km ATP LanthaScreen Assay
Assay type: biochemical
Conditions: G2019S LRRK2, 134 μM ATP (Km ATP), mean values
Listed here: items and their measured LRRK2 pIC50.

As a guide, the following entries are already answered.
- COMPOUND: "Cc1cc2cnc(Nc3cnn(C4CC4)c3Cl)nc2cc1[C@@H]1CCN([C@]2(C)COC[C@@H]2O)C[C@H]1F (single isomer, unassigned)"
  LRRK2 pIC50: ">9.20"
- COMPOUND: "Cc1cc2cnc(Nc3cnn(C4CC4)c3Cl)nc2cc1[C@@H]1CCN(C2COC[C@@H]2O)C[C@H]1F (single isomer, unassigned)"
  LRRK2 pIC50: ">9.20"

Then this compound:
Give its LRRK2 pIC50 value. Item: CC1(N2CC[C@H](c3cc4nc(Nc5cnn(C6CC6(F)F)c5Cl)ncc4cc3Cl)[C@@H](F)C2)COC[C@@H]1O (single isomer, unassigned) [Ex-4.10] >9.20
